Please respond with reported inhibition for every item in the list.
# targetEntity: UniProt:P08842
# assayText: Compound was evaluated for its percent inhibition against the estrone sulfatase enzyme at a concentration of 5 uM
Numbers only, in %.

Some solved entries appear below for comparison.
| testSmiles | inhibition / % |
| --- | --- |
| NS(=O)(=O)Oc1ccc(-c2ccccc2)cc1 | 5.5 |
| COC(=O)c1ccc(-c2ccc(OS(N)(=O)=O)cc2)cc1 | 44.2 |
| CCOC(=O)c1ccc(-c2ccc(OS(N)(=O)=O)cc2)cc1 | 53.4 |
| N#Cc1ccc(-c2ccc(OS(N)(=O)=O)cc2)cc1 | 44.2 |
| CCCOC(=O)c1ccc(-c2ccc(OS(N)(=O)=O)cc2)cc1 | 60.5 |

List inhibition for every entry below, keeping the order given.
1. NS(=O)(=O)Oc1ccc2c3c(c(=O)oc2c1)CCCCC3
2. CCCCOC(=O)c1ccc(-c2ccc(OS(N)(=O)=O)cc2)cc1

1. 86.8
2. 48.4

---

# targetEntity: UniProt:P08842
# assayText: Compound was evaluated for its inhibitory activity against estrone sulfatase enzyme
Decision: IC50 beneath 6 uM tube-1 gives met; IC50 meeting or exceeding 6 uM tube-1 gives not met.

Below, 2 molecules whose answers are already recorded.
| molecule | categoryLabel |
| --- | --- |
| CCOC(=O)c1ccc(-c2ccc(OS(N)(=O)=O)cc2)cc1 | met |
| Cc1cc(=O)oc2cc(OS(N)(=O)=O)ccc12 | not met |

I wonder whether CCCCOC(=O)c1ccc(-c2ccc(OS(N)(=O)=O)cc2)cc1 has IC50 below 6 uM tube-1. Can you tell?
met

# TODO verify IC50 < 6 uM tube-1 strictly for this molecule: N#Cc1ccc(-c2ccc(OS(N)(=O)=O)cc2)cc1
not met

Input COC(=O)c1ccc(-c2ccc(OS(N)(=O)=O)cc2)cc1 ; condition: IC50 strictly below 6 uM tube-1. Does it hold?
met

In the record for NS(=O)(=O)Oc1ccc(-c2ccccc2)cc1 , is IC50 less than 6 uM tube-1?
not met

Dear colleague, could you confirm whether IC50 of CCCOC(=O)c1ccc(-c2ccc(OS(N)(=O)=O)cc2)cc1 falls below 6 uM tube-1? Thanks.
met

Dear colleague, could you confirm whether IC50 of C[C@]12CC[C@@H]3c4ccc(OS(N)(=O)=O)cc4CCC3[C@@H]1CCC2=O (single isomer, unassigned) [EMATE] falls below 6 uM tube-1? Thanks.
met
